# Assay comment: inhibitors of non-replicating M. tuberculosis, dose response, luciferase, dry powder (AID 743183)
# Assay setup: non-replicating M. tuberculosis, luciferase reporter luminescence; at 38 µM (top of the series)
Records with an inconclusive call do not appear.
# activity change, negative = inhibition per record follows
Please give a number only; it is taken to be in %.

# example entries with known answers
[[record]]
chemical_smiles = "CCOC(=O)CNC(=O)N1c2ccccc2Sc2ccccc21"
units_text = "%"
observed_result = -75.4

[[record]]
chemical_smiles = "N#Cc1nc(-c2cccs2)oc1NCCc1ccccc1"
units_text = "%"
observed_result = -87.4

[[record]]
chemical_smiles = "Cc1ccc(C)c(-c2csc(NC(=O)c3cnccn3)n2)c1"
units_text = "%"
observed_result = -66.6


API: the following record is the query input.
Could you tell me which activity change, negative = inhibition is on file for `O=C(OCc1ccc(Cl)c(Cl)c1)c1ccccn1` ? -46.6

Values from PubChem BioAssay AID743183
